Protocol Summary: Antiproliferation assay (MTT)
Assay type: cell-based
Run Parameters: human, HaCaT keratinocyte cells, DHA 0 mg/L, read-out: CC50 of SC5005
Endpoint Label: CC50 at 24 h (µg/mL)
One number for each entry, in µg/mL.

**Query** Find the recorded CC50 at 24 h belonging to `O=C(Nc1ccc(Cl)c(C(F)(F)F)c1)C(CCCl)C(=O)Nc1ccc(Cl)c(C(F)(F)F)c1` and report it.
**Result** 18

* * *

Protocol Summary: Antiproliferation assay (MTT)
Type: cell-based
Run Parameters: human, HaCaT keratinocyte cells, DHA 8 mg/L, read-out: CC50 of SC5005
Endpoint Label: CC50 at 24 h (µg/mL)
Numbers only, in µg/mL.

**Query** Find the recorded CC50 at 24 h belonging to `O=C(Nc1ccc(Cl)c(C(F)(F)F)c1)C(CCCl)C(=O)Nc1ccc(Cl)c(C(F)(F)F)c1` and report it.
**Result** 20.5
